Reference source for all entries: paper PMC4552634

For each of the compounds below, state its % Inhibition.
test system: P. falciparum stage V gametocytes; parameters: BacTiter-Glo ATP luminescence viability of purified stage V gametocytes in 384-well plates, per cent inhibition versus DMSO; conditions: 48 h, 5 µM; inhibitor
The whole screen tested about 13,000 compounds, of which about 3,200 (25%) showed an effect of 50% or more. This is one part of the list.
Answers are plain numbers, in %.

Known % Inhibition results, listed for orientation:
CCOc1c(CNCCCNc2cc(=O)c3ccccc3[nH]2)cc(I)cc1OC [TCMDC-139847]
-35.79
Fc1cc(Cl)ccc1Nc1ccnc(Nc2ccc3cn[nH]c3c2)n1 [TCMDC-138575]
13.66
COc1cc(CNCCCCCCNCc2cc(OC)c3ccccc3c2OC)c(OC)c2ccccc12 [TCMDC-137502]
106.1

// next item, % Inhibition requested
[in] For Cc1sc2nc(CSc3ccccc3)nc(N3CCN(CC(=O)N4CCCC4)CC3)c2c1C [TCMDC-125052] , what is its reported % Inhibition?
[out] -14.62
